TESTED_ON: motor domain of human KSP (Eg 5, KNSL1) (Homo sapiens (Human), UniProt P52732)
Sequence (P52732 18-359): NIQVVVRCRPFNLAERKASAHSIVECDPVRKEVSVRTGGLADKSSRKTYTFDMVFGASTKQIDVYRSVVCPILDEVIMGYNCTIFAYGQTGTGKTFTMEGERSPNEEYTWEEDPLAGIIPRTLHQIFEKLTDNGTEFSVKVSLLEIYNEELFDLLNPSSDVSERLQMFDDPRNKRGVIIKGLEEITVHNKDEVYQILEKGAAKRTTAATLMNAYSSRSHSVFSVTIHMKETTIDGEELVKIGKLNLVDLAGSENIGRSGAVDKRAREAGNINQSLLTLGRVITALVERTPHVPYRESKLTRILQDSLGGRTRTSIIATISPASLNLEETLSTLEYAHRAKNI
PROTOCOL: Assay for determining KSP activity (microtubule-stimulated ATPase, Biomol Green)
Type: biochemical
CONDITION_DESCRIPTION: KSP motor domain 45 nM, microtubules 35 μg/mL, ATP, 1 hour RT, absorbance 630 nm; read-out: Biological Activity IC50
pIC50: −log10 of the molar value.
READOUT_TYPE: pIC50

# COMPOUND, READOUT_TYPE, REPORTED_RESULT
rows = [
    ("C[C@H](O)C(=O)N(CC[C@H](N)CF)[C@@H](c1nc(-c2cc(F)ccc2F)oc1Cc1ccccc1)C(C)(C)C [Example 5]", "pIC50", 8.60),
    ("C[C@H](O)C(=O)N(CC[C@H](N)CF)[C@@H](c1nc(-c2cc(F)ccc2F)sc1Cc1ccccc1)C(C)(C)C [Example 3]", "pIC50", 8.59),
    ("C[C@H](O)C(=O)N(C[C@@H]1CNC[C@@H]1F)[C@H](c1nc(-c2cc(F)ccc2F)oc1Cc1ccccc1)C(C)(C)C [Example 6]", "pIC50", 6.00),
    ("C[C@H](O)C(=O)N(CC[C@H](N)CF)[C@H](c1nc(-c2cc(F)ccc2F)oc1Cc1ccccc1)C(C)(C)C [Example 7]", "pIC50", 6.20),
]
